Hello, the source for this data is patent US12209079B2, in case you need it.

# TARGET_ENTITY: rhTDO (recombinant human TDO) (Homo sapiens, UniProt P48775)
# Sequence (P48775 whole entry): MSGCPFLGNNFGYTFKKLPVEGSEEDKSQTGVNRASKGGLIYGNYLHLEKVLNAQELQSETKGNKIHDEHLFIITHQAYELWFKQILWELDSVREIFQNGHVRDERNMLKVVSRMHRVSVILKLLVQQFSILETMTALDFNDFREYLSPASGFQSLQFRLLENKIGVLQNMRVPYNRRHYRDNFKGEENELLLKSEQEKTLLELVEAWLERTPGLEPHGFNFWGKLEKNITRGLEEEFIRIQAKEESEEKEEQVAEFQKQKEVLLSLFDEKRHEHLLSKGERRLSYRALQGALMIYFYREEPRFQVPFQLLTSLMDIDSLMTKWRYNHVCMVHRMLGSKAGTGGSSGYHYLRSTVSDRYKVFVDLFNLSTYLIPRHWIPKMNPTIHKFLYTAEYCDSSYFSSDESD
# ASSAY_SUMMARY: Enzyme assay using rhTDO (rate of kynurenine production)
# Assay type: biochemical
# ASSAY_CONTEXT: 2 h; final concentration of the compound 10 μM; rate relative to reaction without compound; read-out: rhTDO-mediated kynurenine production
Where a name gives a salt, the structure may show the parent alone.
remaining activity at 10 µM strictly less than 60% = 1.0. Otherwise 0.0.

# count of solved cases: 4
[
  {
    "COMPOUND": "Cc1ccc(C)c(CN2CN=C(SCc3ccccc3CSC3=NCN(Cc4cc(C)ccc4C)CN3)NC2)c1",
    "LABEL_VALUE": 1.0
  },
  {
    "COMPOUND": "Fc1ccc(CSC2=NCN(Cc3ccc(F)c(Cl)c3)CN2)c(CSC2=NCN(Cc3ccc(F)c(Cl)c3)CN2)c1",
    "LABEL_VALUE": 1.0
  },
  {
    "COMPOUND": "Brc1ccc(CS/C(=N/C2CCCCC2)NC2CCCCC2)c(CS/C(=N/C2CCCCC2)NC2CCCCC2)c1 [Compound 57, dihydrobromide]",
    "LABEL_VALUE": 0.0
  },
  {
    "COMPOUND": "Clc1cc(CSC2=NCN(CC3CCCCC3)CN2)c(CSC2=NCN(CC3CCCCC3)CN2)cc1Cl",
    "LABEL_VALUE": 1.0
  }
]

Ask | Does the reported remaining activity at 10 µM of the following compound sit strictly below 60%? N=C(N)SCc1ccc(C(F)(F)F)cc1CSC(=N)N [Compound 46, dihydrobromide]
Reply | 1.0

Ask | Strictly below 60%: is that where remaining activity at 10 µM of Cc1ccc(/N=C(\N)SCc2cc(Cl)c(Cl)cc2CS/C(N)=N/c2ccc(C)cc2)cc1 [Compound 138, dihydrobromide] sits?
Reply | 1.0

Ask | Strictly below 60%: is that where remaining activity at 10 µM of N/C(=N\c1ccc(Br)cc1)SCc1ccc(F)cc1CS/C(N)=N/c1ccc(Br)cc1 [Compound 126, dihydrobromide] sits?
Reply | 1.0

Ask | Dear colleague, could you confirm whether remaining activity at 10 µM of N#Cc1ccc(CNC(=O)c2ncccc2CS/C(N)=N/c2ccc(F)c(Cl)c2)cc1 [Compound 101, hydrobromide] falls below 60%? Thanks.
Reply | 0.0

Ask | Is remaining activity at 10 µM of c1ccc(CN2CN=C(SCc3ccccc3CSC3=NCN(Cc4ccccc4)CN3)NC2)cc1 strictly below 60%?
Reply | 1.0

Ask | Hello, I'm reviewing records and need to know if remaining activity at 10 µM of Clc1ccc(CCN2CN=C(SCc3ccccc3CSC3=NCN(CCc4ccc(Cl)cc4Cl)CN3)NC2)c(Cl)c1 is below 60%. Could you check?
Reply | 1.0

Ask | Take the compound N=C(N)SCc1ccc2ccccc2c1CSC(=N)N [Compound 3, dihydrobromide] and say whether its remaining activity at 10 µM is less than 60%.
Reply | 1.0

Ask | In plain terms, does COc1cccc(CNC(=O)c2ccc(Br)cc2CSC(=N)N)c1 [Compound 105, hydrobromide] come in under 60% for remaining activity at 10 µM?
Reply | 0.0

Ask | Confirm or reject: remaining activity at 10 µM of CNC(=O)c1ccc(C#N)cc1CS/C(N)=N/c1ccc(Br)cc1 [Compound 81, hydrobromide] lies strictly below 60%
Reply | 0.0

Ask | Does N=C(N)SCc1cc(Br)ccc1C(=O)NCc1ccc(Cl)c(Cl)c1 [Compound 94, hydrobromide] have remaining activity at 10 µM strictly under 60%?
Reply | 1.0

Ask | Item N=C(N)[Se]Cc1ccccc1C[Se]C(=N)N [Compound 108, dihydrobromide] : remaining activity at 10 µM beneath 60%, strictly?
Reply | 1.0

Ask | In plain terms, does COc1ccc(CNC(=O)c2ccc(Br)cc2CSC(=N)N)cc1 [Compound 102, hydrobromide] come in under 60% for remaining activity at 10 µM?
Reply | 1.0
